Where do the numbers come from? From patent US20200270309A1.

# System: choroidal neovascularization
# measurementProtocol: Choroidal neovascularization in rats (laser photocoagulation, FFA)
# Assay type: in vivo
# conditionSummary: day 7 after administration, total light spot number was 186, 0.05 μM in the vitreous chamber once a day for 1 week, BN rats
Peptide text beside a SMILES is read from it. * marks the point of attachment. X54 = O=C1C=CC(=O)N1c1cccc(CCCCCCC(=O)*)c1; X63 = O=C1C=CC(=O)N1c1ccccc1CCCCCCC(=O)*; X61 = O=C1C=CC(=O)N1c1cccc(CCCC(=O)*)c1; X75 = O=C1C=CC(=O)N1c1cccc(CC(=O)*)c1
For each entry below, report its Leakage Light spot number value.
Would you mind answering with just the numeric figure?

Record C[C@H](NC(=O)CNC(=O)[C@H](CCCNC(=N)N)NC(=O)CCCc1cccc(N2C(=O)C=CC2=O)c1)C(=O)N[C@@H](CC(=O)O)C(=O)N[C@@H](CCCNC(=N)N)C(=O)N[C@@H](C)C(=O)NCC(=O)NCC(=O)NCC(=O)NCC(=O)N[C@@H](CCCNC(=N)N)C(=O)NCC(=O)N[C@@H](CC(=O)O)C(=O)O [X27] (X61-RGADRAGGGGRGD-OH) , field Leakage Light spot number: 86

Record C[C@H](NC(=O)CNC(=O)[C@H](CCCNC(=N)N)NC(=O)CCCCCCc1ccccc1N1C(=O)C=CC1=O)C(=O)N[C@@H](CC(=O)O)C(=O)N[C@@H](CCCNC(=N)N)C(=O)N[C@@H](C)C(=O)NCC(=O)NCC(=O)NCC(=O)NCC(=O)N[C@@H](CCCNC(=N)N)C(=O)NCC(=O)N[C@@H](CC(=O)O)C(=O)O [X18] (X63-RGADRAGGGGRGD-OH) , field Leakage Light spot number: 86

Record C[C@H](NC(=O)CNC(=O)[C@H](CCCNC(=N)N)NC(=O)CCCCCCc1cccc(N2C(=O)C=CC2=O)c1)C(=O)N[C@@H](CC(=O)O)C(=O)N[C@@H](CCCNC(=N)N)C(=O)N[C@@H](C)C(=O)NCC(=O)NCC(=O)NCC(=O)NCC(=O)N[C@@H](CCCNC(=N)N)C(=O)NCC(=O)N[C@@H](CC(=O)O)C(=O)O [X30] (X54-RGADRAGGGGRGD-OH) , field Leakage Light spot number: 91

Record C[C@H](NC(=O)CNC(=O)[C@H](CCCNC(=N)N)NC(=O)Cc1cccc(N2C(=O)C=CC2=O)c1)C(=O)N[C@@H](CC(=O)O)C(=O)N[C@@H](CCCNC(=N)N)C(=O)N[C@@H](C)C(=O)NCC(=O)NCC(=O)NCC(=O)NCC(=O)N[C@@H](CCCNC(=N)N)C(=O)NCC(=O)N[C@@H](CC(=O)O)C(=O)O [X25] (X75-RGADRAGGGGRGD-OH) , field Leakage Light spot number: 88

====

# System: choroidal neovascularization
# measurementProtocol: Choroidal neovascularization in rats (laser photocoagulation, FFA)
# Assay type: in vivo
# conditionSummary: day 7 after administration, total light spot number was 186, 0.05 μM in the vitreous chamber once a day for 1 week, BN rats
Peptide text beside a SMILES is read from it. * marks the point of attachment. X60 = O=C1C=CC(=O)N1c1ccccc1CCCCCCCCCC(=O)*; X46 = O=C1C=CC(=O)N1c1cccc(CCCCC(=O)*)c1
For each entry below, report its Leakage Light spot number value.
Would you mind answering with just the numeric figure?

Query C[C@H](NC(=O)CNC(=O)[C@H](CCCNC(=N)N)NC(=O)CCCCCCCCCc1ccccc1N1C(=O)C=CC1=O)C(=O)N[C@@H](CC(=O)O)C(=O)N[C@@H](CCCNC(=N)N)C(=O)N[C@@H](C)C(=O)NCC(=O)NCC(=O)NCC(=O)NCC(=O)N[C@@H](CCCNC(=N)N)C(=O)NCC(=O)N[C@@H](CC(=O)O)C(=O)O [X21] (X60-RGADRAGGGGRGD-OH) on choroidal neovascularization; Leakage Light spot number returned: 89

Query C[C@H](NC(=O)CNC(=O)[C@H](CCCNC(=N)N)NC(=O)CCCCc1cccc(N2C(=O)C=CC2=O)c1)C(=O)N[C@@H](CC(=O)O)C(=O)N[C@@H](CCCNC(=N)N)C(=O)N[C@@H](C)C(=O)NCC(=O)NCC(=O)NCC(=O)NCC(=O)N[C@@H](CCCNC(=N)N)C(=O)NCC(=O)N[C@@H](CC(=O)O)C(=O)O [X28] (X46-RGADRAGGGGRGD-OH) on choroidal neovascularization; Leakage Light spot number returned: 87

====

# measurementProtocol: Half-lives and pharmacokinetic parameters of polypeptides vs HM-1
# conditionSummary: in vivo, T1/2β (half-life)
Peptide text beside a SMILES is read from it. * marks the point of attachment. Mal(CH2CH2O)6CH2CH2CO = O=C1C=CC(=O)N1CCOCCOCCOCCOCCOCCOCCC(=O)*; X9 = O=C1C=CC(=O)N1CCOCCOCCOCCOCCOCCCCCCCC(=O)*; X84 = O=C1C=CC(=O)N1c1ccccc1CCCCCCCCCCCCC(=O)*; X46 = O=C1C=CC(=O)N1c1cccc(CCCCC(=O)*)c1; X81 = O=C1C=CC(=O)N1c1ccccc1CCCC(=O)*; X83 = O=C1C=CC(=O)N1CCCCCCC(=O)*
observedProperty: half-life (h)
Give the value, in units of h, as a plain number.

Record C[C@H](NC(=O)CNC(=O)[C@H](CCCNC(=N)N)NC(=O)CCCCCCN1C(=O)C=CC1=O)C(=O)N[C@@H](CC(=O)O)C(=O)N[C@@H](CCCNC(=N)N)C(=O)N[C@@H](C)C(=O)NCC(=O)NCC(=O)NCC(=O)NCC(=O)N[C@@H](CCCNC(=N)N)C(=O)NCC(=O)N[C@@H](CC(=O)O)C(=O)O [X6] (X83-RGADRAGGGGRGD-OH) , field half-life: 37.9

Record C[C@H](NC(=O)CNC(=O)[C@H](CCCNC(=N)N)NC(=O)CCCCCCCOCCOCCOCCOCCOCCN1C(=O)C=CC1=O)C(=O)N[C@@H](CC(=O)O)C(=O)N[C@@H](CCCNC(=N)N)C(=O)N[C@@H](C)C(=O)NCC(=O)NCC(=O)NCC(=O)NCC(=O)N[C@@H](CCCNC(=N)N)C(=O)NCC(=O)N[C@@H](CC(=O)O)C(=O)O [X83] (X9-RGADRAGGGGRGD-OH) , field half-life: 36.2

Record C[C@H](NC(=O)CNC(=O)[C@H](CCCNC(=N)N)NC(=O)CCCCCCCCCCCCc1ccccc1N1C(=O)C=CC1=O)C(=O)N[C@@H](CC(=O)O)C(=O)N[C@@H](CCCNC(=N)N)C(=O)N[C@@H](C)C(=O)NCC(=O)NCC(=O)NCC(=O)NCC(=O)N[C@@H](CCCNC(=N)N)C(=O)NCC(=O)N[C@@H](CC(=O)O)C(=O)O [X24] (X84-RGADRAGGGGRGD-OH) , field half-life: 36.8

Record C[C@H](NC(=O)CNC(=O)[C@H](CCCNC(=N)N)NC(=O)CCCCc1cccc(N2C(=O)C=CC2=O)c1)C(=O)N[C@@H](CC(=O)O)C(=O)N[C@@H](CCCNC(=N)N)C(=O)N[C@@H](C)C(=O)NCC(=O)NCC(=O)NCC(=O)NCC(=O)N[C@@H](CCCNC(=N)N)C(=O)NCC(=O)N[C@@H](CC(=O)O)C(=O)O [X28] (X46-RGADRAGGGGRGD-OH) , field half-life: 31.2

Record C[C@H](NC(=O)CNC(=O)[C@H](CCCNC(=N)N)NC(=O)CCCc1ccccc1N1C(=O)C=CC1=O)C(=O)N[C@@H](CC(=O)O)C(=O)N[C@@H](CCCNC(=N)N)C(=O)N[C@@H](C)C(=O)NCC(=O)NCC(=O)NCC(=O)NCC(=O)N[C@@H](CCCNC(=N)N)C(=O)NCC(=O)N[C@@H](CC(=O)O)C(=O)O [X15] (X81-RGADRAGGGGRGD-OH) , field half-life: 42.6

Record C[C@H](NC(=O)CNC(=O)[C@H](CCCNC(=N)N)NC(=O)CCOCCOCCOCCOCCOCCOCCN1C(=O)C=CC1=O)C(=O)N[C@@H](CC(=O)O)C(=O)N[C@@H](CCCNC(=N)N)C(=O)N[C@@H](C)C(=O)NCC(=O)NCC(=O)NCC(=O)NCC(=O)N[C@@H](CCCNC(=N)N)C(=O)NCC(=O)N[C@@H](CC(=O)O)C(=O)O [X85] ({Mal(CH2CH2O)6CH2CH2CO}-RGADRAGGGGRGD-OH) , field half-life: 41

====

For each entry below, report its Leakage Light spot number value.
# System: choroidal neovascularization
# measurementProtocol: Choroidal neovascularization in rats (laser photocoagulation, FFA)
# Type: in vivo
# conditionSummary: day 7 after administration, total light spot number was 186, 0.05 μM in the vitreous chamber once a day for 1 week, BN rats
Peptide text beside a SMILES is read from it. * marks the point of attachment. X66 = O=C1C=CC(=O)N1c1cccc(CCCCCCCC(=O)*)c1; X52 = O=C1C=CC(=O)N1c1ccccc1CCCCCCCC(=O)*
Would you mind answering with just the numeric figure?

Query C[C@H](NC(=O)CNC(=O)[C@H](CCCNC(=N)N)NC(=O)CCCCCCCc1ccccc1N1C(=O)C=CC1=O)C(=O)N[C@@H](CC(=O)O)C(=O)N[C@@H](CCCNC(=N)N)C(=O)N[C@@H](C)C(=O)NCC(=O)NCC(=O)NCC(=O)NCC(=O)N[C@@H](CCCNC(=N)N)C(=O)NCC(=O)N[C@@H](CC(=O)O)C(=O)O [X19] (X52-RGADRAGGGGRGD-OH) on choroidal neovascularization; Leakage Light spot number returned: 85

Query C[C@H](NC(=O)CNC(=O)[C@H](CCCNC(=N)N)NC(=O)CCCCCCCc1cccc(N2C(=O)C=CC2=O)c1)C(=O)N[C@@H](CC(=O)O)C(=O)N[C@@H](CCCNC(=N)N)C(=O)N[C@@H](C)C(=O)NCC(=O)NCC(=O)NCC(=O)NCC(=O)N[C@@H](CCCNC(=N)N)C(=O)NCC(=O)N[C@@H](CC(=O)O)C(=O)O [X31] (X66-RGADRAGGGGRGD-OH) on choroidal neovascularization; Leakage Light spot number returned: 87
